molecular target: humanized therapeutic monoclonal antibody IgG1 (hIgG1); experiment: direct ELISA, hIgG1 coated, B-cell culture medium

{"binder": "rabbit anti-human IgG monoclonal antibody clone 11G5 (antibody, V domains shown) VH: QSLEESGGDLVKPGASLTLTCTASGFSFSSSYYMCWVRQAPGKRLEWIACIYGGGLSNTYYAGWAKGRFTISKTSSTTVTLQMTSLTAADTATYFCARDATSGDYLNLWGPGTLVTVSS VL: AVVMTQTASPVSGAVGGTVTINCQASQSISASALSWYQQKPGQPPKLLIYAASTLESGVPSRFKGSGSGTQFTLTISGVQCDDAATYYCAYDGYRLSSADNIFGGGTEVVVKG", "OD450": "1.25 OD450"}
